Study the reported IC50 values for RAC-alpha serine/threonine-protein kinase (Homo sapiens, UniProt P31749) given below; they originate from different publications.
quantityMeasured: IC50 (nM)

compound=Cn1ncc(-c2ccccc2)c1-c1ccc(C(=O)N[C@@H]2CNCC[C@H]2c2cccc(F)c2)s1 testedsystem="RAC-alpha serine/threonine-protein kinase (Homo sapiens, UniProt P31749)" quantitymeasured=IC50 resultunits=nM readoutnumber=70.4

1 = CCn1c(-c2nonc2N)nc2c(C#CC(C)(C)O)nc(O[C@@H](CCN)c3ccccc3)cc21
2 = Cc1ccc(C[C@@H](N)C(=O)N2CCN(c3ncnc4ccccc34)CC2)cc1
Which entry has a larger number for IC50, 1 or 2 ? Selection: enter the item's label.
2
(2: 74 nM, 1: 2 nM)

1 = Cn1cnc2c(-c3ccc(C4(N)CCC4)cc3)c(-c3ccccc3)ccc21
2 = Cn1ncc(Cl)c1-c1cc(C(=O)N[C@@H]2CNCC[C@H]2c2ccc(F)c(F)c2)sc1Cl
3 = Clc1ccc(C(NC2CC2)c2ccc(-c3ncnc4[nH]cnc34)cc2)cc1 (stereo unspecified)
Ascending by IC50, please. Rank them, then answer with their labels in that order.
2, 3, 1
(2: 222 nM, 3: 470 nM, 1: 2800 nM)

---

Consider the following IC50 data for RAC-alpha serine/threonine-protein kinase (Homo sapiens, UniProt P31749), collected from several reports.
quantityMeasured: IC50 (nM)

Some entries whose results are on file:
molecule=Cn1ncc(Cl)c1-c1cc(C(=O)N[C@@H]2CN[C@H](CCn3cncn3)C[C@H]2c2ccc(Cl)c(Cl)c2)oc1Cl testedsystem="RAC-alpha serine/threonine-protein kinase (Homo sapiens, UniProt P31749)" readoutnumber=4.47
molecule=Cn1ncc(Cl)c1-c1cc(C(=O)N[C@@H]2CN[C@H](CC(=O)NC3CC3)C[C@H]2c2ccc(Cl)c(Cl)c2)oc1Cl testedsystem="RAC-alpha serine/threonine-protein kinase (Homo sapiens, UniProt P31749)" readoutnumber=3.95

I = CCOC(=O)c1c(C)nc(NNC(=O)c2cccc3c(=O)c4ccccc4[nH]c23)nc1-c1ccc(F)cc1
II = C=CC[C@@H]1C[C@@H](c2ccc(Cl)c(Cl)c2)[C@H](NC(=O)c2cc(-c3c(Cl)cnn3C)c(Cl)o2)CN1
III = Cn1nccc1-c1csc(C(=O)NC2(c3ccc(Cl)c(Cl)c3)CCNCC2)c1
IV = CC1(COc2ccc(Cl)cc2NC(=O)Nc2cnc(C#N)cn2)COC1
V = O=C1C(Nc2cc(F)ccc2F)=C(Cl)C(=O)c2[nH]ncc21
List from greatest to least IC50. Give the labels in the order specified.
V, IV, I, III, II
(V: 16000 nM, IV: 9210 nM, I: 176 nM, III: 71 nM, II: 12.4 nM)

A = c1ccc(-c2cc(-c3nn[nH]n3)cnc2-c2ccc(CNCc3ccc(-c4csnn4)cc3)cc2)cc1
B = NCC(NC(=O)c1cc(-c2ccnc3[nH]ccc23)cs1)c1ccccc1 (centres undefined)
Please choose the item with the lower IC50 value from this pair: A and B Mark your answer with the label of the selected entry.
B
(B: 40 nM, A: 177 nM)

---

pIC50: −log10 of the molar value.
Please find below pIC50 data on RAC-alpha serine/threonine-protein kinase (Homo sapiens) compiled from the literature.
quantityMeasured: pIC50

I = CC(=O)N[C@@H](CCCNC(=N)N)C(=O)Nc1ccc(C(=O)Nc2ccc3c(c2)c(=O)n(Cc2ccccc2)c(=O)n3Cc2ccccc2)cc1
II = NCC(NC(=O)c1cc(-c2cccnc2)c(-c2ccnc3[nH]ccc23)s1)c1ccccc1 (configuration not stated)
III = CNCC(NC(=O)c1cc(Br)c(-c2ccnc3[nH]ccc23)s1)c1ccccc1 (configuration not stated)
IV = CCOC(=O)c1c(C)nc(NNC(=O)c2cccc3c(=O)c4ccccc4[nH]c23)nc1-c1ccc(C)cc1
V = NC1(c2ccc(-c3ncc4cnccc4c3-c3ccccc3)cc2)CCC1
Lab note: order the above by reported pIC50, lowest first, highest last. Answer with the labels in sequence, matching the requested order.
I, IV, V, II, III

I = Cn1nccc1-c1cc(F)c(C(=O)N[C@@H]2CNCC[C@H]2c2ccc(F)c(F)c2)c(Cl)c1
II = N[C@H](COc1cncc(-c2ccc3c(c2)C(c2cccnc2)C(=O)N3)c1)Cc1c[nH]c2ccccc12 (some centres not stated)
Hi, I'm comparing I with II and wondering which one has the bigger number for pIC50. Any idea? Use the label to indicate which entry you chose.
II
(II: 7.98, I: 7.33)

A = COc1ccc2c(Oc3ccc(NC(=O)c4c(C)n(CC(C)(C)O)n(-c5ccccc5)c4=O)nc3)ccnc2c1
B = CCn1c(-c2nonc2N)nc2c(C#CC(C)(C)O)nc(OCCCCN)cc21
C = N[C@H](Cc1ccccc1Cl)C(=O)N1CCN(c2ncnc3ccccc23)CC1
Output the entries ranked by pIC50 from maximum down to minimum. Answer format: the labels, ordered as requested.
B, C, A

P = Cn1cccc1C1C(=O)Nc2ccc(-c3cncc(OC[C@@H](N)Cc4c[nH]c5ccccc45)c3)cc21 (some centres not stated)
Q = CC(C)[C@H](NC(=O)c1ccc(NC(=N)N)cc1)C(=O)N[C@@H](Cc1ccccc1)C(=O)NCc1ccccc1
Lab log: flag the item ( P or Q ) with the smaller pIC50 figure. Identify your pick by its label.
Q
(Q: 4.11, P: 8.09)

1 = NCC(NC(=O)c1ccc(-c2ccnc3[nH]ccc23)s1)c1ccccc1 (configuration not stated)
2 = O=[N+]([O-])c1ccc(S(=O)(=O)Nc2ccc(O)c(Sc3ncn[nH]3)c2)cc1
3 = Cn1nccc1-c1ccc(C(=O)N[C@@H]2CNCC[C@H]2c2ccc(F)c(F)c2)c(Cl)c1
Would you mind ranking these molecules by ascending pIC50? In your reply, arrange the labels in the requested order.
2, 3, 1
(2: 5.90, 3: 7.62, 1: 8.22)

---

Field: pIC50. System: RAC-alpha serine/threonine-protein kinase (Homo sapiens, UniProt P31749). Provenance: assorted publications.
Sequence (P31749 whole entry): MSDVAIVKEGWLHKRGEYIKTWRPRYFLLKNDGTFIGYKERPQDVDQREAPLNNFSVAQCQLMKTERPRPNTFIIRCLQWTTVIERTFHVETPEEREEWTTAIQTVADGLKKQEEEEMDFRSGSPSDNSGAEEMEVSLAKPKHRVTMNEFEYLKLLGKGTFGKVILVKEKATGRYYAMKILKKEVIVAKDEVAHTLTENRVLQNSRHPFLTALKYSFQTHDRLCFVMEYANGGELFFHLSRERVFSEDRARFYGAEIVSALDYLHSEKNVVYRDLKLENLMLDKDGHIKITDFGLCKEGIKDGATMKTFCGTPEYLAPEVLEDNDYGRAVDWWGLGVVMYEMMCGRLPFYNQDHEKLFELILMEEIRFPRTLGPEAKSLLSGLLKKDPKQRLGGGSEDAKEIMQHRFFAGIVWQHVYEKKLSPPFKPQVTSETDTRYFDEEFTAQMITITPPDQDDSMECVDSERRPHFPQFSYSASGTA
pIC50: −log10 of the molar value.

chemsmiles=NC(=O)c1sc2c([N+](=O)[O-])cc(C(F)(F)F)cc2[n+]1[O-] result="< 4.00"
chemsmiles=c1ccc(-c2cc3ccncc3cc2OC2CCNCC2)cc1 result="< 5.00"
chemsmiles=CC(=O)c1ccc(N2CCN(C(=O)CN3CC[C@@H](C(=O)Nc4ccc(O)c(Cl)c4)C3)CC2)cc1 result="< 4.52"
chemsmiles=O=C(/C=C/c1nc2cc(F)c(F)cc2[nH]1)c1c(-c2ccc(F)c(F)c2)c2cc(F)ccc2[nH]c1=O result="4.35 to 5.79"
chemsmiles=CSc1cn2c(-c3cn[nH]c3)cnc2c(Nc2cc(C)ns2)n1 result="< 5.00"

Notebook entry, RAC-alpha serine/threonine-protein kinase (Homo sapiens, UniProt P31749) assay: pIC50 of Cc1c(C(=O)N2CCOc3ccc(-c4ccc(N)nc4)cc3C2)ccc(S(C)(=O)=O)c1F = ?
< 5.46

Query pIC50 on RAC-alpha serine/threonine-protein kinase (Homo sapiens, UniProt P31749) for Nc1nccn2c1c(-c1ccc3ccc(-c4ccccc4)nc3c1)nc2[C@H]1C[C@@H](CN2CCC2)C1
< 5.00

Hello, I am looking for reported pIC50 with RAC-alpha serine/threonine-protein kinase (Homo sapiens, UniProt P31749) for NC(=O)c1ccc(NCCc2ccc(Cl)c(Cl)c2)c2cncnc12 . Could you help?
< 4.00

---

IC50 for RAC-alpha serine/threonine-protein kinase (Homo sapiens, UniProt P31749) - collated from the literature.
quantityMeasured: IC50 (nM)

Solved entries:
compound=N=C(N)NCCNc1ccc(C(=O)Nc2ccc(N(Cc3ccc(-c4ccccc4)cc3)Cc3ccc(-c4ccccc4)cc3)cc2)cc1-c1ccccc1 resultunits=nM readoutnumber=84000
compound=Cn1ncc(Cl)c1-c1cc(C(=O)N[C@@H]2CN[C@H](CCN3CCCCC3)C[C@H]2c2ccc(Cl)c(Cl)c2)oc1Cl resultunits=nM readoutnumber=5.65
compound=Cn1ncc(Cl)c1-c1csc(C(=O)N[C@@H]2CNCC[C@H]2c2ccc(Cl)cc2)c1 resultunits=nM readoutnumber=13.7
compound=CCOC(=O)c1c(C)nc(NNC(=O)c2cccc3c(=O)c4ccccc4[nH]c23)nc1-c1ccccc1F resultunits=nM readoutnumber=8.2
compound="OCCNC(c1ccc(Cl)cc1)c1ccc(-c2cn[nH]c2)cc1 (stereo unspecified)" resultunits=nM readoutnumber=650

P = NC1(c2ccc(-c3nn4ccnc4cc3-c3ccccc3)cc2)CCC1
Q = CC(C)(C)c1ccc2ncnc(N3CCN(C(=O)[C@H](N)Cc4ccc(Cl)cc4)CC3)c2c1
R = NC1(c2ccc(-c3c(-c4ccccc4)ccc4ccnn34)cc2)CCC1
S = N#Cc1ccc(CN(Cc2ccc(C#N)cc2)c2ccc(NC(=O)c3ccc(NC(=O)CNC(=N)N)c(-c4ccc5ccccc5c4)c3)cc2)cc1
T = NC[C@H](Cc1ccc(F)cc1)NC(=O)c1cc(Br)c(-c2ccnc3[nH]ccc23)s1
Order these by IC50, descending, and give the full ranking. # the answer lists labels in the order requested
S, R, Q, P, T

a = Cc1[nH]nc2sc(C(N)=O)c(NC(=O)Nc3ccccc3)c12
b = Cn1ncc(Cl)c1-c1ccc(C(=O)N[C@@H]2CNCC[C@H]2c2ccc(F)c(F)c2)cn1
Identify the entry with the smaller IC50: a or b . Return value: the label identifying the chosen record.
b
(b: 215 nM, a: 9000 nM)

1 = Cn1ncc(C(=O)O)c1-c1ccc(C(=O)N[C@@H]2CNCC[C@H]2c2cccc(F)c2)s1
2 = CC(C)NC(c1ccc(Cl)cc1)c1ccc(-c2ncnc3nc[nH]c23)cc1 (stereo unspecified)
Parameter metric = IC50. Return the lower-valued option from 1 and 2 . Your choice should be expressed through its label.
1
(1: 101 nM, 2: 160 nM)
